- experimental protocol: gradient 5% acetonitrile 3 min, to 50% in 2 min, to 85% in 15 min, held 3 min, 100 µL/min
- measurement context: column: Zorbax Extend-C18 2.1 x 50 mm; eluents: water / acetonitrile, 0.1% formic acid
recorded endpoint: RP-LC retention time
The reply must contain the numeric value and, after it, the unit.

Recorded results for 5 compounds are shown here.
// COc1ccc(Cl)cc1S(=O)(=O)N1CCCC(C(=O)Nc2ccccc2)C1 (configuration not stated) : RP-LC retention time value = 967 s

// "Cc1ccc2nc(-c3ccc(N(C)C)cc3)c(Nc3ccc4c(c3)OCCO4)n2c1" : RP-LC retention time value = 726 s

// CCc1ccc(N2CC(c3noc(-c4ccc(F)cc4)n3)CC2=O)cc1 (configuration not stated) : RP-LC retention time value = 1100 s

// "Cc1ccc(NS(=O)(=O)c2cc3n(c2)CCCNC3=O)cc1" : RP-LC retention time value = 651 s

// "O=C(Nc1ccccc1F)N1CC(Oc2cccc(-c3nc(-c4ccccc4)no3)c2)C1" : RP-LC retention time value = 1140 s

Continuing:
// "O=C(Nc1ccc(N2CCN(Cc3ccc(F)cc3)C2=O)nc1)c1ccsc1" : RP-LC retention time value = 787 s

// "Cc1cc(NC(=O)c2c(O)c3cccnc3n(-c3cccc(F)c3)c2=O)ccc1F" : RP-LC retention time value = 1310 s

====

- experimental protocol: gradient 5% acetonitrile 3 min, to 50% in 2 min, to 85% in 15 min, held 3 min, 100 µL/min
- measurement context: column: Zorbax Extend-C18 2.1 x 50 mm; eluents: water / acetonitrile, 0.1% formic acid
Label rule, in plain words: RP-LC retention time of 800 s and up is Met, under 800 s is Not met.

Completed entries (count: 10):
Answer whether RP-LC retention time of CCC(O)c1nc2ccccc2n1CC(=O)N(C)c1ccccc1 (stereo not drawn) is greater than or equal to 800 s.
Not met

Answer whether RP-LC retention time of "CCCOc1cc(N2CCN(C(=O)c3ccc4c(c3)OCO4)CC2)nc(C)n1" is greater than or equal to 800 s.
Not met

Answer whether RP-LC retention time of CCCc1nc2cccnc2n1C1CCN(C(=O)Cc2cccs2)C1 (stereo not drawn) is greater than or equal to 800 s.
Not met

Answer whether RP-LC retention time of "Cc1ccn2cc(-c3ccc(NS(=O)(=O)c4ccc(F)cc4)cc3)nc2n1" is greater than or equal to 800 s.
Not met

Answer whether RP-LC retention time of "O=C(NCCc1ccccc1)C1CCN(c2cc(N3CCCCC3)ncn2)CC1" is greater than or equal to 800 s.
Not met

Answer whether RP-LC retention time of "CCNC(=O)c1nc(C(=O)NCCC(C)C)cs1" is greater than or equal to 800 s.
Not met

Answer whether RP-LC retention time of "CCNc1cc(N2CCC(CCC(=O)NCc3cccc(F)c3)CC2)ncn1" is greater than or equal to 800 s.
Not met

Answer whether RP-LC retention time of COCCCNC(=O)C(C)n1c(=O)c(C(F)(F)F)nc2cc(C)c(C)cc21 (stereo not drawn) is greater than or equal to 800 s.
Met

Answer whether RP-LC retention time of "COc1ccc(S(=O)(=O)Cc2nc(-c3ccccc3C)no2)cc1OC" is greater than or equal to 800 s.
Met

Answer whether RP-LC retention time of CCC(C)NC(=O)C1CCC(=O)N(c2ccc(OC)cc2)C1c1ccc(OC)c(OC)c1 (stereo not drawn) is greater than or equal to 800 s.
Not met

Kindly consider the entry below.
Answer whether RP-LC retention time of "Cc1ccc(C)c(Cn2nnc(C(=O)O)c2-c2ccccn2)c1" is greater than or equal to 800 s.
Not met

====

- experimental protocol: gradient 5% acetonitrile 3 min, to 50% in 2 min, to 85% in 15 min, held 3 min, 100 µL/min
- measurement context: column: Zorbax Extend-C18 2.1 x 50 mm; eluents: water / acetonitrile, 0.1% formic acid
Listing: RP-LC retention time of selected compounds
The reply must contain the numeric value and, after it, the unit.

Recorded results for 3 compounds are shown here.
// "COc1cc(CCC(=O)N2CCN(c3cc(=O)n(C)c(=O)n3C)CC2)cc(OC)c1OC" : RP-LC retention time value = 647 s

// "CN(Cc1ccccc1)C(=O)CN1C(=O)CCCc2cc(S(=O)(=O)N3CCCCC3)ccc21" : RP-LC retention time value = 907 s

// Cc1ccc(CN2C(=O)CC(N3CCCCC3)C2=O)cc1 (stereo not drawn) : RP-LC retention time value = 580 s

Continuing:
// "CN(CCc1noc(-c2ccc(Cl)cc2)n1)C(=O)COc1ccc(F)cc1" : RP-LC retention time value = 993 s

// "O=C(c1cc(Cl)ccc1Cl)N1CCN(c2cc(-c3cccs3)[nH]n2)CC1" : RP-LC retention time value = 870 s

====

- experimental protocol: gradient 5% acetonitrile 3 min, to 50% in 2 min, to 85% in 15 min, held 3 min, 100 µL/min
- measurement context: column: Zorbax Extend-C18 2.1 x 50 mm; eluents: water / acetonitrile, 0.1% formic acid
Listing: RP-LC retention time of selected compounds
The figure you give is taken to be in s; do not add the unit.

Recorded results for 8 compounds are shown here.
// CCOC(=O)c1cc(S(=O)(=O)N2CCCC2C(=O)NC2CCC(C)CC2)cn1C (configuration not stated) : RP-LC retention time value = 966

// "N#CSc1ccc(NC(=O)c2ccc(-n3cnnn3)cc2)cc1" : RP-LC retention time value = 754

// "CS(=O)(=O)N1CCCN(C(=O)NC2CCCC2)CC1" : RP-LC retention time value = 636

// Cc1nnc(-c2ccc(S(=O)(=O)N3CCCC(C)C3)o2)o1 (configuration not stated) : RP-LC retention time value = 836

// COc1ccc(-c2noc(C3CCCN3C(=O)c3cccnc3SC)n2)cc1 (configuration not stated) : RP-LC retention time value = 907

// "CC1CCN(C(=O)C2CCN(S(=O)(=O)c3cc(C(=O)N4CCCCC4)n(C)c3)CC2)CC1" : RP-LC retention time value = 803

// "Cc1nc2cc(-c3noc(Cc4ccc(Br)cc4)n3)ccc2n(C)c1=O" : RP-LC retention time value = 1020

// "CCCn1cc(C(=O)NCCN(C)C)c(S(=O)(=O)N2CCN(c3ccc(Cl)cc3)CC2)n1" : RP-LC retention time value = 730

Continuing:
// "O=C(CCCSc1ccc(NC(=O)c2ccc(F)cc2)nn1)NCc1cccs1" : RP-LC retention time value = 802

// COC(=O)N1CCc2ccccc2C1C(=O)NCc1ccco1 (configuration not stated) : RP-LC retention time value = 715

// "Cn1c(N2CCC(C(=O)N3CCC(Cc4ccccc4)CC3)CC2)cc(=O)n(C)c1=O" : RP-LC retention time value = 824

// "CCOC(=O)c1cc2c(cn1)[nH]c1ccccc12" : RP-LC retention time value = 691

====

- experimental protocol: gradient 5% acetonitrile 3 min, to 50% in 2 min, to 85% in 15 min, held 3 min, 100 µL/min
- measurement context: column: Zorbax Extend-C18 2.1 x 50 mm; eluents: water / acetonitrile, 0.1% formic acid
Listing: RP-LC retention time of selected compounds
The figure you give is taken to be in s; do not add the unit.

Recorded results for 4 compounds are shown here.
// Cc1cccc(NC(=O)C2CCc3nc(N4CCOCC4)ncc3C2)c1C (configuration not stated) : RP-LC retention time value = 698

// "CCOC(=O)c1cccc(Nc2c(-c3ccc(C(=O)OC)cc3)nc3cnccn23)c1" : RP-LC retention time value = 902

// "O=C(NCCC1=CCCCC1)C(=O)NCC1(CO)CC1" : RP-LC retention time value = 713

// "O=C(c1cc2c(s1)-c1ccsc1CC2)N1CCN(c2ccccn2)CC1" : RP-LC retention time value = 698

Continuing:
// "Cc1nc2ccccc2c(=O)n1Cc1noc(Cc2ccc(Br)cc2)n1" : RP-LC retention time value = 917

// "Cc1nnc(-c2coc(S(=O)(=O)N(C)C3CCCCC3)c2)o1" : RP-LC retention time value = 906

// "Cc1cccc(C)c1Nc1c(-c2ccccc2F)nc2ccc(Br)cn12" : RP-LC retention time value = 893

====

- experimental protocol: gradient 5% acetonitrile 3 min, to 50% in 2 min, to 85% in 15 min, held 3 min, 100 µL/min
- measurement context: column: Zorbax Extend-C18 2.1 x 50 mm; eluents: water / acetonitrile, 0.1% formic acid
Listing: RP-LC retention time of selected compounds
The figure you give is taken to be in s; do not add the unit.

// "CCOC(=O)Cc1c(CN2CCN(C)CC2)c2ccccc2n1Cc1ccccc1" : RP-LC retention time value = 681

// CCCn1c(-c2cccc(C(=O)NC(C)c3ccc(C)cc3C)c2)nc2cccnc21 (stereo not drawn) : RP-LC retention time value = 955

// "Cc1cccc(NC(=O)C2CCN(S(=O)(=O)c3cc(-c4noc(C)n4)cs3)CC2)n1" : RP-LC retention time value = 768
